Data provenance is the supplement of paper PMC6555819.

System: RARg homodimer (NR concentration 270 nM)
Assay: PBM binding z-score (relative to random genomic background probes); higher = stronger binding; sequences stand for … in GC…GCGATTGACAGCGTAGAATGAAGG
Outcome: true for PBM binding z-score of at least 0.9; false for anything lower.

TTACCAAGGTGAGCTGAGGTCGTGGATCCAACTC: false

Tell me whether PBM binding z-score is at least 0.9 here: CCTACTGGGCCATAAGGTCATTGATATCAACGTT true

Now consider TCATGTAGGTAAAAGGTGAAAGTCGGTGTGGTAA and answer again. false

Then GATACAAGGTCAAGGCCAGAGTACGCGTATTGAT ? true

Try the sequence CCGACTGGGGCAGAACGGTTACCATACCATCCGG false

Param item: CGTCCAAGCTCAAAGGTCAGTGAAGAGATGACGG true

###

Test system: RARb:RXRa (NR concentration 270 nM, RXRa partner concentration 90 nM)
Test: PBM binding z-score (relative to random genomic background probes); higher = stronger binding; sequences stand for … in GC…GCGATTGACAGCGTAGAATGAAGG
MEASURED_QUANTITY: PBM binding z-score
Field format: numeric only.

Sample answers from the record:
CCTAGCAGGCCCGGGTCACTCAAGCATTTCGCTT: 1.63
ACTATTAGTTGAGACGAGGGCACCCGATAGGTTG: 0.966
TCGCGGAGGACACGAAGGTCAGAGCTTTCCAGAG: 3.26
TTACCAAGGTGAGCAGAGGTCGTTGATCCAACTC: 1.99
GCTGCTAGGTCAGTTTGGTCAGCTAACGGGTACG: 3.1

Please give the measured PBM binding z-score for this sequence: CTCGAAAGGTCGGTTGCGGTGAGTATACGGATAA 2.92

What would you report for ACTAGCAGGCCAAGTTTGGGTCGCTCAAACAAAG ? 0.491

Same for CCTAGTGGGCCATCAGGTCATTGATATCAACGTT 1.94

Field entry: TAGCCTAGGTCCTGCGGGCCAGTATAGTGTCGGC -0.954

Also, GCTAGCAGGCCATTTGGGCCACTCAATGACGGGC please. -0.143

Field entry: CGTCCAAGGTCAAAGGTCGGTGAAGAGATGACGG 5.68

Now this one: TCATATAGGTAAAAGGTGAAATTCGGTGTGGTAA 1.89

Proceed to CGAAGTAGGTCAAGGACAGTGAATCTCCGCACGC 3.95

Another sequence: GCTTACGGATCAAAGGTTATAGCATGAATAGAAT 1.42

One more sequence: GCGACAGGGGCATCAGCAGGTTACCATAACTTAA 1.27

Same question, CAAACTAGGTCACGAAAGGTCAATGTCGAATGAC this time 5.86

// query: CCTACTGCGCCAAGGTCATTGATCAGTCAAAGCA 3.51

Likewise for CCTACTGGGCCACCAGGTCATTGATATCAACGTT ? 1.98

Next up: ATTTGTAGGTTAGCTGGGGTCATTCAGACTAGGC 3.52

Repeat for the following sequence: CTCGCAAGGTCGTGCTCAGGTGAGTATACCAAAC 2.47

Okay, and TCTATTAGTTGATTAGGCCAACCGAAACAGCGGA ? 0.707

Would you kindly repeat that for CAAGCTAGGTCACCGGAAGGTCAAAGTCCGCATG ? 5.53

Input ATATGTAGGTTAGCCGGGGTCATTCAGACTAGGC 3.31

###

System: THRa:RXRa (NR concentration 90 nM, RXRa partner concentration 90 nM)
Test: PBM binding z-score (relative to random genomic background probes); higher = stronger binding; sequences stand for … in GC…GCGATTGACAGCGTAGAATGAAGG
Label scheme, based on PBM binding z-score: lo (below 1), mid (1 to below 3), hi (3 or more)

Worked set:
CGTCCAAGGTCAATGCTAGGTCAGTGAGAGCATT: hi
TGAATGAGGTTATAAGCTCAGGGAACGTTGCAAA: mid
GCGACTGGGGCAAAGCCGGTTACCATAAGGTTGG: lo
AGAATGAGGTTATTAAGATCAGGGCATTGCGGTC: mid
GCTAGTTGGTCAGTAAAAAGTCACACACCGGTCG: lo

Record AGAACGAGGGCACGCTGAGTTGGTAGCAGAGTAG — which class? mid

Now try TGAATCAGGTTATAAGATCAGGGAACGTTGCAAA . lo

Also CAAACTAGGTCACAGAGGTCAAATTCCGTGCGTA ? hi

Thanks! And AATACAGGGTCACTACGCCAGAGTAGGTACGAAT ? hi

Same thing, different sequence: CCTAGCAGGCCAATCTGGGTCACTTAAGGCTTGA hi

Field entry: CCTAGCAGGCCAATCTGGGTCATTCAAGGCTTGA hi

Same question for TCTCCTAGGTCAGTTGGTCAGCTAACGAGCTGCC please. mid

###

System: THRa homodimer (NR concentration 90 nM)
Assay: PBM binding z-score (relative to random genomic background probes); higher = stronger binding; sequences stand for … in GC…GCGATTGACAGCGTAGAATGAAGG
A collection of sequences and their measured PBM binding z-score
Output: the number by itself.

Solved cases below.
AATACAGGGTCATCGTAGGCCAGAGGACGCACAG: 1.75
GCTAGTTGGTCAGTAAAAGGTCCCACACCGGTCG: -0.0359
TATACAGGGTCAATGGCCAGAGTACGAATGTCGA: 0.631
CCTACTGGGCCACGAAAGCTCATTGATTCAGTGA: -0.958

What measured PBM binding z-score goes with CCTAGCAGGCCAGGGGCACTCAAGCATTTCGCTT ? -1.01

Try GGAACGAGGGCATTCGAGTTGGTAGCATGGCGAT next. -0.702

And for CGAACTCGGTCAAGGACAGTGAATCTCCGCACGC ? 1.37

Also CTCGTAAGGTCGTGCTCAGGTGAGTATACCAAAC , if possible. 2.99

Also, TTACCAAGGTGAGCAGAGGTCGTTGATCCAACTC please. 0.587

// next record TCTAGTAGATCAGCAGGTTAAGAAAGCTGGCCAA -1.15

Note, next up: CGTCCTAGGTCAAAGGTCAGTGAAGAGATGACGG 1.39

Quick one: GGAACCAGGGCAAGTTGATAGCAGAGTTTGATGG 1.21

###

Tested on: RARa homodimer (NR concentration 270 nM)
Assay: PBM binding z-score (relative to random genomic background probes); higher = stronger binding; sequences stand for … in GC…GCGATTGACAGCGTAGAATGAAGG
Here the recorded PBM binding z-score is given for each entry.
Lab note: record the figure alone, no unit after it.

Query for RARa homodimer (NR concentration 270 nM): what PBM binding z-score does the record show for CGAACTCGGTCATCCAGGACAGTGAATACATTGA ? 0.205

Follow-up entry: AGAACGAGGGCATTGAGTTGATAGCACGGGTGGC -0.274

Follow-up entry: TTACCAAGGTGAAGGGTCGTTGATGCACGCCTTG -0.291

What do we get for GTGACTGGGGCAAAGCAGGTTACCATAAGGTTGG ? -0.0502

Also, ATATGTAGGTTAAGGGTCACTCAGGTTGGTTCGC please. 2.24

Try this sequence too: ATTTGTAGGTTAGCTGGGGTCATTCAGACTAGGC 2.49

Consider next the sequence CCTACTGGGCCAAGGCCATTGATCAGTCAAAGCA in the same way. -0.85

# repeat for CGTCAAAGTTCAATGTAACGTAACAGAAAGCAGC 1.95

Moving on to the next sequence: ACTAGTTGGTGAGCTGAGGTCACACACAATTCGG 0.439

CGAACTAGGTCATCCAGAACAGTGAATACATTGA ? 0.855

Also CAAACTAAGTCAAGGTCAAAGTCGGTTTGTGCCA ? 1.46

And then CCAGACAGGTGAAAAGGTAACTCAGCCTCGATTA , what is it? 1.21

###

Known PBM binding z-score of a selection of sequences
Test system: VDR homodimer (NR concentration 270 nM)
Assay: PBM binding z-score (relative to random genomic background probes); higher = stronger binding; sequences stand for … in GC…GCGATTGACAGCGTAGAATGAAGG
Output: the number by itself.

Below, 5 sequences whose answers are already recorded.
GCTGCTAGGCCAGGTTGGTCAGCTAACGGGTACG: -0.861
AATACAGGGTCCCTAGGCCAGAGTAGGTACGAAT: 0.0969
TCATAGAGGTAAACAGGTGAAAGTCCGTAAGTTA: -0.0713
CCTCGGAGGACGACAGGAGGTCAGAGCTGCCAGA: 0.665
GCTACTAGTTGAAAGGGCAACCGAATGATTCTCG: 0.214

Query (sequence): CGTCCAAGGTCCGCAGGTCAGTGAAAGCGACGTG ; field requested: PBM binding z-score -0.00185

Now consider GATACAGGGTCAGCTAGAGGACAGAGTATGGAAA . 0.873

Can you check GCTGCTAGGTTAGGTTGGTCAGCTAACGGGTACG next? 0.253
